Assay Remarks: qHTS for Antagonists of gsp, the Etiologic Mutation Responsible for Fibrous Dysplasia/McCune-Albright Syndrome: qHTS; further: nearly all actives have a fitted effect of over 65% in size
Condition Description: gsp-mutant cells, cAMP HTRF, 30 min; series mostly up to 76.9 µM
In all, about 340,000 compounds went through this assay and about 1,400 (0.41%) were called active. Another 4% or so got no clear call; they are omitted. The call rests on the fitted dose curve; cell line not stated here. This excerpt belongs to a sample that is enriched for actives.
Would you mind answering with one of these outcomes? active, inactive

Oc1cccc(C2c3[nH]c4ccccc4c3CCN2Cc2cnn(-c3ccccc3)c2)c1 (stereo not drawn) = inactive
O=C(Nc1cccc(Br)c1)c1ccc2snnc2c1 = inactive
CSc1ncccc1C(=O)Nc1nc2ccc(F)cc2s1 = active
CC(=O)Oc1ccc2c(c1)C(=O)c1ccccc1C2=O = inactive
CN(O)C(=S)c1ccccc1 = inactive
CCOC(=O)c1ccc2[nH]c(C)c(CN3CCN(C)CC3)c(=O)c2c1 = inactive
NC(=O)c1ccc(N2CCCC2)nc1 = inactive
O=C(COC(=O)c1ccccc1)Nc1cccc(S(=O)(=O)N2CCOCC2)c1 = inactive

-- ask Would you mind telling me which call this test gave O=C(CCl)NNc1nc(-c2ccccc2)c2cc(Cl)ccc2n1 ?
-- reply inactive

-- ask Would you mind telling me which call this test gave CC(C)OC(=O)c1ccc(NCc2cc(O)ccc2O)cc1Cl ?
-- reply inactive

-- ask Would you mind telling me which call this test gave O=[N+]([O-])c1cc([N+](=O)[O-])c(Oc2cc(F)cc(F)c2F)cc1NN1CCCCC1 ?
-- reply active

-- ask Would you mind telling me which call this test gave COc1ccc(C2c3[nH]c4ccccc4c3CCN2CCCn2cccn2)cc1C (stereo not drawn) ?
-- reply inactive

-- ask Would you mind telling me which call this test gave Cc1c(NS(=O)(=O)c2cccc(C(=O)Nc3ccc(SC(F)F)cc3)c2)c(=O)n(-c2ccccc2)n1C ?
-- reply inactive

-- ask Would you mind telling me which call this test gave CC(=O)Nc1ccc(C(=O)Nc2cc(S(=O)(=O)N3CCOCC3)ccc2N2CCOCC2)cc1 ?
-- reply inactive

-- ask Would you mind telling me which call this test gave O=C(CCCCCCCC(=O)N1CCCCC1)N1CCCCC1 ?
-- reply inactive

-- ask Would you mind telling me which call this test gave O=c1c2ccccc2c(-c2ccccc2)nn1-c1ccccn1 ?
-- reply inactive

-- ask Would you mind telling me which call this test gave CCCNC(=O)CCn1nc(-c2ccccc2)c2ccccc2c1=O ?
-- reply inactive

-- ask Would you mind telling me which call this test gave C[C@H](O)[C@@H]1C(=O)N2CCc3ccc(N4CCOCC4)cc3[C@@H]2C[C@@H]1N(C)C(=O)C(C)(C)C ?
-- reply inactive

-- ask Would you mind telling me which call this test gave O=C(Nc1ccc2ccccc2c1)Nc1ccc2snnc2c1 ?
-- reply active

-- ask Would you mind telling me which call this test gave O=c1c2ccccc2c(-c2ccc(F)cc2)nn1-c1ccc(C(F)(F)F)cc1 ?
-- reply inactive

-- ask Would you mind telling me which call this test gave c1ccc(-c2c[nH]c(-c3ccccc3)c2)cc1 ?
-- reply inactive

-- ask Would you mind telling me which call this test gave CC12CCCCC1=CC(=O)CC2 (stereo not drawn) ?
-- reply inactive

-- ask Would you mind telling me which call this test gave Cc1cc2ccccn2c1C(=O)c1cccc(S(=O)(=O)N2CCOCC2)c1 ?
-- reply active

====

Assay Remarks: qHTS for Antagonists of gsp, the Etiologic Mutation Responsible for Fibrous Dysplasia/McCune-Albright Syndrome: qHTS; further: nearly all actives have a fitted effect of over 65% in size
Condition Description: gsp-mutant cells, cAMP HTRF, 30 min; series mostly up to 76.9 µM
Experimental: McCune-Albright syndrome (MAS) is a rare disease caused by somatic mutations in Gsgsp), a widely expressed protein central in signal transduction from G-coupled protein receptors (GPCRs). The disease symptoms are diverse, owing to the fact that the patients are mosaics with varying degrees of tissue involvement. […] The tissue phenotype is determined by the role of Gs in the function of a given cell, and excess Gs/cAMP signaling in that cell. […]
Screen size: about 340,000 compounds; about 1,400 (0.41%) were called active. Roughly 4% stayed inconclusive and do not appear here. Calls come from the whole dose curve; cell line not stated here. The sample as a whole holds a higher share of actives than the screen did.
Would you mind answering with one of these outcomes? true for active, false for inactive

Worked cases, answers included:
CCC(=C/c1sc2ccc3ccccc3c2[n+]1C)/C=C1\Sc2ccc3ccccc3c2N1C = true
O=C1NC(c2ccccc2)Cc2ccncc21 (configuration not stated) = false
O=C(OCCOc1ccccc1F)c1cc(S(=O)(=O)N2CCOCC2)ccc1F = false
COc1ccc(NC(=O)N2CCCC(c3nc(-c4ccc(F)cc4)no3)C2)cc1 (configuration not stated) = false
CC(=O)Nc1ccc(S(=O)(=O)N2CCN(CCCOc3cc(C)ccc3C)CC2)cc1 = true

-- ask Would you mind telling me which call this test gave CCOC(=O)C1CCCN(C(=O)CN(c2ccc(OC)cc2)S(=O)(=O)c2c(C)noc2C)C1 (configuration not stated) ?
-- reply false

-- ask Would you mind telling me which call this test gave O=C(O)C(CCc1ccccn1)c1ccccc1 (configuration not stated) ?
-- reply false

-- ask Would you mind telling me which call this test gave Cc1ccc(C)c(OCCC(=O)Nc2cccc(S(=O)(=O)N3CCCC3)c2)c1 ?
-- reply false

-- ask Would you mind telling me which call this test gave Cc1noc(C)c1NC(=O)Nc1ccc2c(c1)C(=O)N([C@H](C)CO)C[C@H](C)[C@@H](CN(C)C(=O)Nc1ccccc1)O2 ?
-- reply false

-- ask Would you mind telling me which call this test gave CCCCN1CC(COc2ccccc2)Oc2cccc(F)c2S1(=O)=O (configuration not stated) ?
-- reply false

Values from PubChem BioAssay AID624288
